# Target Or Test System: EBOV GP on recombinant EBOV-eGFP virus (Zaire ebolavirus (EBOV))
# Test Details: cell-based or functional assay
The following binders are listed with their measured Neutralization, IC50 ng/mL values.
Measured Endpoint: Neutralization, IC50 ng/mL

| Binder | Experimental Result |
| --- | --- |
| EBOV-517 (antibody, V domains shown) VH: EVQLVESGGGLVQPGGSLRLSCGASGFTFNKYWMTWVRQAPGKGLEWVANINQDGSEKYFAESVKGRFTVSRDNAKNSLYLQMNSLRAEDTAVYYCARGASIEVEILYYYHMDVWGKGTLVTVSS VL: EIVMTQSPATLSVSPGERATLSCRASQSITTHLAWYQQKPGQAPRLLIYDTSTRATGIPARFSGSGSGTEFTLTISNMQSEDFAVYYCQQYHTWPPLTFGGGTKVEIK | > 200000 ng/mL |
| EBOV-524 (antibody, V domains shown) VH: QVQLVESGGGVVQPGGSLRLSCAASGFKFSTYGMNWVRQVPGQGLEWVSFVRHDGSNKYYSDSVKGRFTIFRDNSNNKLYLQMNNLRAEDTAVYYCAKDVLDCSRADCFIYYYYMDVWGKGTLVTVSS VL: DIQMTQSPSSVSASPGDRVTITCRASQTISGWLAWYQQKPGKAPKLLIYDVSTLQSGVPSRFSGGGSGTEFTFTISSLQPEDYATYFCQQGNRIPLSFGGGTRVEIK | > 200000 ng/mL |
